Data credit: the supplement of paper PMC6555819

Test system: LXRa:RXRa (NR concentration 270 nM, RXRa partner concentration 90 nM)
experiment_summary: PBM binding z-score (relative to random genomic background probes); higher = stronger binding; sequences stand for … in GC…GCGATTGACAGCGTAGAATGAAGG
Each record's class is read off its PBM binding z-score using these ranges: lower band (below 0.02), central band (0.02 to below 2), upper band (2 or more)

- query_sequence: "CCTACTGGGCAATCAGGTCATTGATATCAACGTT"
  assigned_class: "central band"
- query_sequence: "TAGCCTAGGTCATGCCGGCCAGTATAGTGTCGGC"
  assigned_class: "upper band"
- query_sequence: "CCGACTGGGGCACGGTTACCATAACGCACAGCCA"
  assigned_class: "lower band"
- query_sequence: "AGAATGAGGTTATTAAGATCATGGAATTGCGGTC"
  assigned_class: "central band"
- query_sequence: "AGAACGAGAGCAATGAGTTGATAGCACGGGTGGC"
  assigned_class: "lower band"

Each sequence maps to one class by PBM binding z-score. Which class for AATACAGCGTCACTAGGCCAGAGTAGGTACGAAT ? lower band

Each sequence maps to one class by PBM binding z-score. Which class for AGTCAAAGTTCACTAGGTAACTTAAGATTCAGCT ? upper band

Each sequence maps to one class by PBM binding z-score. Which class for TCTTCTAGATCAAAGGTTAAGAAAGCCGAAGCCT ? central band

Each sequence maps to one class by PBM binding z-score. Which class for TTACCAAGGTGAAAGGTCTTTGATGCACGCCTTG ? central band

Each sequence maps to one class by PBM binding z-score. Which class for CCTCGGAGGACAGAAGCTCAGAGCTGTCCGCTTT ? lower band

Each sequence maps to one class by PBM binding z-score. Which class for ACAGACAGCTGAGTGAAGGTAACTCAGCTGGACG ? lower band

Each sequence maps to one class by PBM binding z-score. Which class for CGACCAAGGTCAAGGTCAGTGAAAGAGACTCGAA ? upper band

Each sequence maps to one class by PBM binding z-score. Which class for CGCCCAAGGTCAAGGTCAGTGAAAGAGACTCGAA ? upper band

Each sequence maps to one class by PBM binding z-score. Which class for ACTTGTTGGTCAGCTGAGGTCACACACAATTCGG ? upper band

Each sequence maps to one class by PBM binding z-score. Which class for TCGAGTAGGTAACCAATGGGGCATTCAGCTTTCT ? central band

Each sequence maps to one class by PBM binding z-score. Which class for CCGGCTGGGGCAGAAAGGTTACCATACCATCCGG ? central band

---

Entries and their measured PBM binding z-score follow.
Test system: VDR:RXRa (NR concentration 270 nM, RXRa partner concentration 90 nM)
experiment_summary: PBM binding z-score (relative to random genomic background probes); higher = stronger binding; sequences stand for … in GC…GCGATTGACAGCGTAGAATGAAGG
API note: the answer field is a bare number with no unit suffix.

Reference set (8 entries):
- query_sequence: "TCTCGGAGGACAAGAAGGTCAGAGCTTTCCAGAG"
  PBM binding z-score: 1.8
- query_sequence: "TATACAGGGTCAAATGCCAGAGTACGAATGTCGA"
  PBM binding z-score: 4.82
- query_sequence: "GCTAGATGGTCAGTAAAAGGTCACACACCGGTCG"
  PBM binding z-score: 3.91
- query_sequence: "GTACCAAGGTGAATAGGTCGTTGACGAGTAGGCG"
  PBM binding z-score: 0.987
- query_sequence: "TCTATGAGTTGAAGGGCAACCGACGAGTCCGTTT"
  PBM binding z-score: 0.953
- query_sequence: "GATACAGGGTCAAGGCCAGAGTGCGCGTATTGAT"
  PBM binding z-score: 4.23
- query_sequence: "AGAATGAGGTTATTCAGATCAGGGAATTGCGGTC"
  PBM binding z-score: 2.7
- query_sequence: "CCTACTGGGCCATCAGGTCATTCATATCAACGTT"
  PBM binding z-score: 1.67

State, in one line, measured PBM binding z-score of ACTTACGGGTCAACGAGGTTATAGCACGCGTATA 7.63

State, in one line, measured PBM binding z-score of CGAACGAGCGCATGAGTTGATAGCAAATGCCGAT -0.307

State, in one line, measured PBM binding z-score of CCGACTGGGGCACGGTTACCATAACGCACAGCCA -0.636

State, in one line, measured PBM binding z-score of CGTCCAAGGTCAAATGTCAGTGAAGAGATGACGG 4.67

State, in one line, measured PBM binding z-score of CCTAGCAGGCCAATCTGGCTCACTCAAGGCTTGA -0.563
